The reported measurements were obtained from paper PMC4447944.

Molecular target: hGSK3A (Homo sapiens, UniProt P49840)
Sequence (P49840 whole entry): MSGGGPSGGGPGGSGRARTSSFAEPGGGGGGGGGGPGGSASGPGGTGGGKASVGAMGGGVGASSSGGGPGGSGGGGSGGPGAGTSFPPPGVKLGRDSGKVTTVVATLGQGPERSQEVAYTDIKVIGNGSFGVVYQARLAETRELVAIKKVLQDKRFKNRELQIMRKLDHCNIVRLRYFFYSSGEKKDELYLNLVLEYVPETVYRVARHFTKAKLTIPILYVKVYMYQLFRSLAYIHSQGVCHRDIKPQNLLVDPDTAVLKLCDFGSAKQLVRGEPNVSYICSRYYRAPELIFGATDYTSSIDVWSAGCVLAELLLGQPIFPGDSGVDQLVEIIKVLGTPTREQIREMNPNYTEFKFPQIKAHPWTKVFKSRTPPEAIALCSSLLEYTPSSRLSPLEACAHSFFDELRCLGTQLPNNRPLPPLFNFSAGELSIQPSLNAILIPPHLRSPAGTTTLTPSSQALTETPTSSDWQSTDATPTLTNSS
pIC50: −log10 of the molar value.
Assay metric: pIC50

Req: Query (compound): Cc1cn(CCN2CCN(c3ccccc3-c3cc(C#N)cc(C(=O)NCCCN4CCCC4)c3)CC2)c2ccccc12 [LLY-507] ; field requested: pIC50
Resp: < 4.70

---

Target: hEPHA7 (Homo sapiens)
Sequence (Q15375 28-998): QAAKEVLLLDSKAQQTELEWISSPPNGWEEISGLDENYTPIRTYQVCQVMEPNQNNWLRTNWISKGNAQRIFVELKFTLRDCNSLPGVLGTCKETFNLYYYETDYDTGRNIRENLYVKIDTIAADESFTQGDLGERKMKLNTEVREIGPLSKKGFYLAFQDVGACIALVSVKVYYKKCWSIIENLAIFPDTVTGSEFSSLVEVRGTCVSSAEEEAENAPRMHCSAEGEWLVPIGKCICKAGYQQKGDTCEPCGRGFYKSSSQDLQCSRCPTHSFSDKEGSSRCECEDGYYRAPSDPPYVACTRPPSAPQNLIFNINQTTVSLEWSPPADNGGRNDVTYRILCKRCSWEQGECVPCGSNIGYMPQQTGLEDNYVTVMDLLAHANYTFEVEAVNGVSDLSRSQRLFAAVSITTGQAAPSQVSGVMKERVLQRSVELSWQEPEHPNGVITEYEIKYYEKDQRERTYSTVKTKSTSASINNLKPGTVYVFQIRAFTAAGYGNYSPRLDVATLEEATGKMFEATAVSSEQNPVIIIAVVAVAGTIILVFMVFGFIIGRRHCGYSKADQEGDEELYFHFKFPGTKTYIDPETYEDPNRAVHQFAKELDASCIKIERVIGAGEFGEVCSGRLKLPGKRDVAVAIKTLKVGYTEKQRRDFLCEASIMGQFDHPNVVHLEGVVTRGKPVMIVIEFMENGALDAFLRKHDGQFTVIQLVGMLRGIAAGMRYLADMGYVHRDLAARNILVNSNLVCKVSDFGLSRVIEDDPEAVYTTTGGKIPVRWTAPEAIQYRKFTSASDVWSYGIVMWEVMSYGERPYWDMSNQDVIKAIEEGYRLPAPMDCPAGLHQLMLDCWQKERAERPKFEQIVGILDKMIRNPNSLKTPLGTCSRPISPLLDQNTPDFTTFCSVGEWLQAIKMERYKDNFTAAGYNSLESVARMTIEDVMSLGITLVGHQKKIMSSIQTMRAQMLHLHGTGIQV
Assay metric: IC50

Req: Query (molecule): `Cc1cn(CCN2CCN(c3ccccc3-c3cc(C#N)cc(C(=O)NCCCN4CCCC4)c3)CC2)c2ccccc12` ; field requested: IC50
Resp: > 20 µM

---

Target chain: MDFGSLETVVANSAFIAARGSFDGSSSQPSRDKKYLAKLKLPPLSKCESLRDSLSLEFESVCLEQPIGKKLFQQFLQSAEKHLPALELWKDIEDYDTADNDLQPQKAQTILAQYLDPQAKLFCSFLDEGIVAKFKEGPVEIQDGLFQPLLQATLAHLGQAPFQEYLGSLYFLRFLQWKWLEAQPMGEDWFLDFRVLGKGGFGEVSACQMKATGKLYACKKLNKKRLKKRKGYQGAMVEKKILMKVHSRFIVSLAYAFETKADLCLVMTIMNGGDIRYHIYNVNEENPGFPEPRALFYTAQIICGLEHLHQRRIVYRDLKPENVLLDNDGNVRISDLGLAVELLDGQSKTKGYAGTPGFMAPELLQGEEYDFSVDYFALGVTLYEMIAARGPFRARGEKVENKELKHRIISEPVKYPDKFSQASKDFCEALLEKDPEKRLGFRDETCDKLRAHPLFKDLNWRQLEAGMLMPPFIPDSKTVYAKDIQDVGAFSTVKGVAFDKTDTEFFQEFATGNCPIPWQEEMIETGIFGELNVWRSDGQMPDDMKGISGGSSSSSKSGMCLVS
pIC50: −log10 of the molar value.
Assay metric: pIC50

Req: Query (molecule): Cc1cn(CCN2CCN(c3ccccc3-c3cc(C#N)cc(C(=O)NCCCN4CCCC4)c3)CC2)c2ccccc12 [LLY-507] ; field requested: pIC50
Resp: < 4.70

---

Target: hABL1(pT315I) (Homo sapiens, UniProt P00519, T315I)
Test: KINOMEscan
pIC50: −log10 of the molar value.
Assay metric: pIC50

Req: Query (molecule): Cc1cn(CCN2CCN(c3ccccc3-c3cc(C#N)cc(C(=O)NCCCN4CCCC4)c3)CC2)c2ccccc12 [LLY-507] ; field requested: pIC50
Resp: < 4.70

---

Biological target: hFXR (Homo sapiens, UniProt Q96RI1)
Sequence (Q96RI1 1-486): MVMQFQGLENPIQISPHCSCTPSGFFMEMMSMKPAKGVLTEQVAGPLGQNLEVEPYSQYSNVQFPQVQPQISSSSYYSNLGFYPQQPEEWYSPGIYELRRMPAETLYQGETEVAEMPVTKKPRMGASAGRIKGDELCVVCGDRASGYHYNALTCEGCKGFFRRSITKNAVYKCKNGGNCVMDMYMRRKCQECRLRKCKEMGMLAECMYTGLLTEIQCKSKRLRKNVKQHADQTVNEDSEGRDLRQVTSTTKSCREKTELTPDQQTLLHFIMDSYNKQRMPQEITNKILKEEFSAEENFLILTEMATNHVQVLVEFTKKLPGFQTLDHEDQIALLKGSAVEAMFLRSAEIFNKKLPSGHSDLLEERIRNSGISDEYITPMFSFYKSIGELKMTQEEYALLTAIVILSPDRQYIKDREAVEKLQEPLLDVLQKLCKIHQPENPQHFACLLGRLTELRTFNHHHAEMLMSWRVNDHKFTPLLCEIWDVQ
pIC50: −log10 of the molar value.
Assay metric: pIC50

Req: Query (compound): Cc1cn(CCN2CCN(c3ccccc3-c3cc(C#N)cc(C(=O)NCCCN4CCCC4)c3)CC2)c2ccccc12 [LLY-507] ; field requested: pIC50
Resp: < 5.00
